Numbers sourced from paper PMC10628895.

- measured_on: UniProt P18825
- protocol: cAMP accumulation, LANCE Ultra cAMP TR-FRET immunoassay, cells stably expressing α2CR
Quick rule for you: IC50 under 300 nM gets fulfilled, anything else gets not fulfilled.

Request: State whether 300 nM exceeds IC50 recorded for CN(C)[C@H]1CCc2c(cccc2-c2cccc3ccccc23)C1 [(S)-7] .
Result: fulfilled

Request: Similarly, CN(C)[C@H]1CCc2c(cccc2-c2ccccc2F)C1 [(S)-2] ?
Result: fulfilled

Request: Could you do the same for Fc1ccccc1-c1cccc2c1CC[C@H](N1CCCC1)C2 [(S)-4] , please?
Result: fulfilled

Request: Moving on to CN(C)[C@H]1CCc2c(cccc2-c2cccn2C)C1 [(S)-10]
Result: fulfilled

Request: Then this molecule: CN(C)[C@H]1CCc2c(cccc2-c2ccccc2)C1 [(S)-1]
Result: not fulfilled

Request: And the next one, CN(C)[C@H]1CCc2c(cccc2-c2ccccc2Cl)C1 [(S)-3] ?
Result: fulfilled

###

Assign pKi to each entry below.
- measured_on: human wild-type α2CR (Homo sapiens, UniProt P18825)
- Sequence (P18825 whole entry): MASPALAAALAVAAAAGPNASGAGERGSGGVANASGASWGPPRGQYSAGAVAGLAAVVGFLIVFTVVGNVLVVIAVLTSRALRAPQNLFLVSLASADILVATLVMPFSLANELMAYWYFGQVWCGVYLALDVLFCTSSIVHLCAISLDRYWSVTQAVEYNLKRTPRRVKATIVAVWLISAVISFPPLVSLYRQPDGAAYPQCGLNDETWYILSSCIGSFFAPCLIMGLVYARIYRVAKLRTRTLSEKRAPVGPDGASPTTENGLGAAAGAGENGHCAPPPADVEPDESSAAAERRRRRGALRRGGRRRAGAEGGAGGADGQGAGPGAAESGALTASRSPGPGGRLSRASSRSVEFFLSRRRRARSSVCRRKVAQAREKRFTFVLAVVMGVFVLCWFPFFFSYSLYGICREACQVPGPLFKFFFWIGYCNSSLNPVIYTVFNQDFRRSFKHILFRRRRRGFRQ
- protocol: Radioligand binding with [3H]rauwolscine (competition and saturation), membranes of transfected HEK293 cells
- Design: host or cells: mouse connective-tissue cells stably expressing the receptor
Scale: negative log10 of molar concentration, which is what pKi denotes.

Request: Query (compound): CN(C)[C@H]1CCc2c(cccc2-c2cccc3ccccc23)C1 [(S)-7] ; field requested: pKi
Result: 6.74

Request: Next: CCCN(CCC)[C@H]1CCc2c(cccc2-c2ccccc2Cl)C1 [(S)-6]
Result: 6.55

Request: Another: CCCN(CCC)[C@@H]1CCc2c(cccc2-c2ccccc2Cl)C1 [(R)-6]
Result: 6.47

Request: What would you report for CN(C)[C@H]1CCc2c(cccc2-c2ccccc2F)C1 [(S)-2] ?
Result: 7.72

Request: // query: CN(C)[C@H]1CCc2c(cccc2-c2cccn2C)C1 [(S)-10]
Result: 7.30

###

- measured_on: human wild-type α2CR (Homo sapiens, UniProt P18825)
- protocol: cAMP accumulation, LANCE Ultra cAMP TR-FRET immunoassay, cells stably expressing α2CR
- experimental_parameters: cAMP formation
property_measured: functional activity at the α2CR (in words)

Some solved cases for reference:
CN(C)[C@H]1CCc2c(cccc2-c2ccccc2Cl)C1 [(S)-3]	inverse agonists
CN(C)[C@H]1CCc2c(cccc2-c2ccccc2)C1 [(S)-1]	inverse agonism
CN(C)[C@H]1CCc2c(cccc2-c2cccc3ccccc23)C1 [(S)-7]	inverse agonism
CN(C)[C@H]1CCc2c(cccc2-c2ccccc2F)C1 [(S)-2]	inverse agonists

Next, consider the following compound.
Request: Notebook: pull reported functional activity at the α2CR (in words) for human wild-type α2CR (Homo sapiens, UniProt P18825), entry Fc1ccccc1-c1cccc2c1CC[C@H](N1CCCC1)C2 [(S)-4]
Result: inverse agonists

###

- measured_on: human wild-type α2CR (Homo sapiens, UniProt P18825)
- protocol: cAMP accumulation, LANCE Ultra cAMP TR-FRET immunoassay, cells stably expressing α2CR
property_measured: EC50 (nM)
Write the answer as a number in nM, unit excluded.

Request: What value of EC50 has been recorded for this entry: CC(Oc1c(Cl)cccc1Cl)C1=NCCN1 (stereo not shown) [Lofexidine, reference compound]
Result: 4.9

###

- measured_on: human wild-type α2AR (Homo sapiens)
- protocol: cAMP accumulation, LANCE Ultra cAMP TR-FRET immunoassay, cells stably expressing α2AR
property_measured: IC50 (nM)
Give a bare numeral; the unit nM is implied.

Request: For the molecule shown here, CN(C)[C@H]1CCc2c(cccc2-c2cccn2C)C1 [(S)-10] , give the reported IC50.
Result: 11

###

Exercise: for every item that follows, state its recorded pEC50.
- measured_on: human wild-type α2AR (Homo sapiens, UniProt P08913)
- Sequence (P08913 whole entry): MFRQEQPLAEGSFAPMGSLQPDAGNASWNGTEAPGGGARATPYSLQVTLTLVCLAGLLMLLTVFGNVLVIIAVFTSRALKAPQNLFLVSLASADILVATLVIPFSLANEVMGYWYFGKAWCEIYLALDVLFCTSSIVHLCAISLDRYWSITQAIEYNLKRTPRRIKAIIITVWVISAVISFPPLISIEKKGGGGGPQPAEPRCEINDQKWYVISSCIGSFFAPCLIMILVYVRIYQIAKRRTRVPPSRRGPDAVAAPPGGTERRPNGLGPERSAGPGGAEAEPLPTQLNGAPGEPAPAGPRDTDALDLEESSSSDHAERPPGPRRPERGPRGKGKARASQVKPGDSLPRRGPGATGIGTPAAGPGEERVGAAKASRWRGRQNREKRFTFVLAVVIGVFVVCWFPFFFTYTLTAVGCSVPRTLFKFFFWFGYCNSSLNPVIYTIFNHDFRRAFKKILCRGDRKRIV
- protocol: cAMP accumulation, LANCE Ultra cAMP TR-FRET immunoassay, cells stably expressing α2AR
Remember, pEC50 is on a log scale: it is -log10 of the molar concentration.

Request: Endpoint output: pEC50 of CN(C)[C@H]1CCc2c(cccc2-c2cccc3ccccc23)C1 [(S)-7] . Value?
Result: 7.09

Request: Further, for Fc1ccccc1-c1cccc2c1CC[C@H](N1CCCC1)C2 [(S)-4] ?
Result: 8.96

Request: Lookup CN(C)[C@H]1CCc2c(cccc2-c2ccccc2)C1 [(S)-1]
Result: 8.85

Request: Try CN(C)[C@H]1CCc2c(cccc2-c2ccccc2Cl)C1 [(S)-3] next.
Result: 8.89

Request: // same read-out, input: CN(C)[C@H]1CCc2c(cccc2-c2ccccc2F)C1 [(S)-2]
Result: 9.26

###

- measured_on: human wild-type α2AR (Homo sapiens)
- protocol: cAMP accumulation, LANCE Ultra cAMP TR-FRET immunoassay, cells stably expressing α2AR
- experimental_parameters: cAMP formation
property_measured: functional activity at the α2AR (in words)

CN(C)[C@H]1CCc2c(cccc2-c2cccc3ccccc23)C1 [(S)-7]	agonist activity
CN(C)[C@H]1CCc2c(cccc2-c2ccccc2)C1 [(S)-1]	agonist activity

###

- measured_on: human wild-type α2AR (Homo sapiens, UniProt P08913)
- protocol: cAMP accumulation, LANCE Ultra cAMP TR-FRET immunoassay, cells stably expressing α2AR
- experimental_parameters: read-out: Emax α2AR, percent maximum response normalized to lofexidine; mean ± SD; NC = no significant change from forskolin-established baseline signaling
property_measured: Emax (%)
State the answer as a number, implicitly in %.

Request: Entry CN(C)[C@H]1CCc2c(cccc2-c2ccccc2Cl)C1 [(S)-3] has what Emax?
Result: 47

Request: // query: CN(C)[C@H]1CCc2c(cccc2-c2ccccc2F)C1 [(S)-2]
Result: 45

Request: What do you have for CN(C)[C@H]1CCc2c(cccc2-c2cccc3ccccc23)C1 [(S)-7] ?
Result: 14

###

- measured_on: human wild-type α2AR (Homo sapiens)
- protocol: Radioligand binding with [3H]rauwolscine (competition and saturation), membranes of transfected HEK293 cells
- Parameters: host or cells: mouse connective-tissue cells stably expressing the receptor
pKi: −log10 of the molar value.
Answer Condition not met if pKi is under 8, and Condition met if it is 8 or more.

Request: hey, is pKi for this one >= 8? CN(C)[C@@H]1CCc2c(cccc2-c2ccccc2Cl)C1 [(R)-3]
Result: Condition not met

Request: Now consider CN(C)[C@H]1CCc2c(cccc2-c2ccco2)C1 [(S)-8] .
Result: Condition not met

Request: Entry CN(C)[C@H]1CCc2c(cccc2-c2ccccc2Cl)C1 [(S)-3] please
Result: Condition met

Request: Could you do the same for CCCN(CCC)[C@H]1CCc2c(cccc2-c2ccccc2)C1 [(S)-5] , please?
Result: Condition not met

Request: Lookup CN(C)[C@@H]1CCc2c(cccc2-c2ccccc2F)C1 [(R)-2]
Result: Condition not met

Request: One more molecule: CN(C)[C@@H]1CCc2c(cccc2-c2ccco2)C1 [(R)-8]
Result: Condition not met

Request: Same question for CCCN(CCC)[C@@H]1CCc2c(cccc2-c2ccccc2)C1 [(R)-5] please.
Result: Condition not met

Request: Item: CN(C)[C@@H]1CCc2c(cccc2-c2cccn2C)C1 [(R)-10]
Result: Condition not met

Request: Also CCCN(CCC)[C@H]1CCc2c(cccc2-c2ccccc2Cl)C1 [(S)-6] ?
Result: Condition not met

Request: And what about the molecule CCCN(CCC)[C@@H]1CCc2c(cccc2-c2ccccc2Cl)C1 [(R)-6] ?
Result: Condition not met

Request: And then CN(C)[C@@H]1CCc2c(cccc2-c2ccccc2)C1 [(R)-1] , what is it?
Result: Condition not met

Request: Try CN(C)[C@H]1CCc2c(cccc2-c2cccc3ccccc23)C1 [(S)-7] next.
Result: Condition not met

Request: Entry to check: CN(C)[C@H]1CCc2c(cccc2-c2ccccc2F)C1 [(S)-2]
Result: Condition met

###

- measured_on: human wild-type α2CR (Homo sapiens)
- protocol: Radioligand binding with [3H]rauwolscine (competition and saturation), membranes of transfected HEK293 cells
- Parameters: host or cells: mouse connective-tissue cells stably expressing the receptor
property_measured: Ki (nM)
Please respond with the number in nM and leave the unit unwritten.

Request: # Ki lookup, item CN(C)[C@@H]1CCc2c(cccc2-c2ccccc2)C1 [(R)-1]
Result: 500

Request: Now consider CN(C)[C@H]1CCc2c(cccc2-c2ccccc2)C1 [(S)-1] and answer again.
Result: 35

Request: Same question for CN(C)[C@H]1CCc2c(cccc2-c2ccco2)C1 [(S)-8] please.
Result: 150

Request: What about this compound? CN(C)[C@H]1CCc2c(cccc2-c2cccs2)C1 [(S)-9]
Result: 48

Request: Try this compound too: CCCN(CCC)[C@H]1CCc2c(cccc2-c2ccccc2)C1 [(S)-5]
Result: 370

Request: And then CN(C)[C@H]1CCc2c(cccc2-c2ccccc2Cl)C1 [(S)-3] , what is it?
Result: 17

Request: Now this one: CCCN(CCC)[C@@H]1CCc2c(cccc2-c2ccccc2)C1 [(R)-5]
Result: 580

Request: Can you check CN(C)[C@@H]1CCc2c(cccc2-c2ccccc2Cl)C1 [(R)-3] next?
Result: 500

Request: Same again, this time with CN(C)[C@@H]1CCc2c(cccc2-c2cccn2C)C1 [(R)-10]
Result: 310

Request: Entry to check: CN(C)[C@@H]1CCc2c(cccc2-c2ccco2)C1 [(R)-8]
Result: 460

Request: Do the same for CN(C)[C@@H]1CCc2c(cccc2-c2ccccc2F)C1 [(R)-2] please
Result: 680
